Values were extracted from PubChem BioAssay (Tox21).

- assayProcedure: qHTS assay to identify small molecule agonists of the androgen receptor (AR) signaling pathway in the presence of an antagonist - cell viability counter screen (AID 1259379);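 also: MDA-kb2 human breast cancer cells carrying an MMTV luciferase reporter; % is scaled to controls: 0 for no effect and ±100 for the full control effect; nearly all actives have a fitted effect of over 25% in size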
- conditionParameters: MDA-kb2 viability, CellTiter-Fluor, 16 h; series mostly up to 92.4 µM
Results filed as inconclusive are left out. Active and inactive are the calls of the source. Calls follow the shape of the dose curve; as a rule, active = well fitted cell-killing curve with a large enough effect in the repeat runs; inconclusive = weak or mixed curves, or effect the other way; inactive = flat fitted curve, though single readings scatter.
testReadout: activity change, negative = cytotoxicity

Below, 4 compounds whose answers are already recorded.
| cpdSmiles | activity change, negative = cytotoxicity |
| --- | --- |
| CN1CCN(CC(=O)N2c3ccccc3C(=O)Nc3cccnc32)CC1 | -6.25% [at 8.39 µM] (inactive) |
| O=C(OCc1ccccc1)C(=O)OCc1ccccc1 | inactive |
| O=C(OCC1(COC(=O)c2cccnc2)CCCC(COC(=O)c2cccnc2)(COC(=O)c2cccnc2)C1O)c1cccnc1 | inactive |
| Nc1nnc(-c2cccc(Cl)c2Cl)c(N)n1 | inactive |

For the 2 compounds below, give their activity change, negative = cytotoxicity values.
1. CC[C@H](C)C(=O)O[C@H]1C[C@H](O)C=C2C=C[C@H](C)[C@H](CC[C@@H](O)C[C@@H](O)CC(=O)O)[C@H]21
2. CCCC(=O)C(C)=O

Output:
1: inactive; 2: inactive

* * *

- assayProcedure: qHTS RealTime-Glo MT Cell Viability Assay in HEK293 cells - 40 hour (AID 1224874); also: % is scaled to controls: 0 for no effect and ±100 for the full control effect; nearly all actives have a fitted effect of over 50% in size
- conditionParameters: RealTime-Glo luminescence; hits give low values
Records with an inconclusive call do not appear.
For each of the molecules below, state its max response.
Numbers only, in %.

| molecule | max response / % |
| --- | --- |
| CN(C)C(=O)CNC(=O)Cc1ccccc1 | 4.97 |
| CC(CO)c1ccccc1 (centres undefined) | -0.132 |
| O=C(O)c1ccc(Cl)cc1Cl | 7.46 |
| Cc1cccc(C)c1NC(=O)c1ccccc1C(=O)O | 2.81 |

Can you give me max response for all of these, one by one?
1. CCCCCOC(=O)CCC
2. O=S(=O)(O)c1ccc2cc(O)c(S(=O)(=O)O)cc2c1
3. Cc1cccc(C)c1OCC(C)N (centres undefined)
4. O=C(NCC(O)CO)c1c(I)c(C(=O)NCC(O)CO)c(I)c(N(CCO)C(=O)CO)c1I (centres undefined)
5. CC(C)c1ccc2cc(C(C)C)ccc2c1
6. O=C(OCC(COC(=O)c1cccnc1)(COC(=O)c1cccnc1)COC(=O)c1cccnc1)c1cccnc1

Output:
1. -0.243
2. -1.21
3. 2.76
4. 8.98
5. 11.1
6. 10.7

Need max response for each of these molecules.
1. COC(=O)CCc1ccc(OCC(O)CNC(C)C)cc1 (centres undefined)
2. CC(C)(C)c1cc(CCC(=O)NN)cc(C(C)(C)C)c1O
3. CCN(C)C(=O)Oc1cccc([C@H](C)N(C)C)c1
4. CCOCCOCCOCC
5. CC1(CO)CN(c2ccccc2)NC1=O (centres undefined)

Output:
1. 5.47
2. -14
3. 1.94
4. 4.8
5. -10.7

Provide the reported max response of each entry below, same order.
1. CCCCCCCCC(=O)Cl
2. CCc1ccc(C=O)cc1
3. Nc1ccc2cc(S(=O)(=O)O)cc(O)c2c1
4. CC(=O)N[C@@H](CCC(=O)O)C(=O)O
5. CCN1CCc2nc(N)oc2CC1
6. COCCOCCOCCOCCOCCO

Output:
[10.1, -4.49, 0.478, 1.63, 0.505, 0.969]

State recorded max response for all listed molecules.
1. C[C@@H](Oc1ccc(CNC(=O)c2cccnc2Oc2ccc3c(c2)OCO3)c(F)c1)C(=O)O
2. CCCCNC1CC(C)(C)NC(C)(C)C1

Output:
1. 9.55
2. 10.4

* * *

- assayProcedure: qHTS assay for identifying genotoxic compounds that show differential cytotoxicity against isogenic chicken DT40 cell lines with known DNA damage response pathways - Rad54/Ku70 mutant cell line (AID 743015); also: nearly all actives have a fitted effect of over 60% in size
- conditionParameters: DT40 Rad54/Ku70 mutant viability, CellTiter-Glo, 40 h; series mostly up to 66.8 µM
- Excerpt: National Center for Advancing Translational Sciences [NCATS] NIH Chemical Genomics Center [NCGC] U.S. Environmental Protection Agency [EPA] National Institutes of Environmental Health Sciences [NIEHS] National Toxicology Program [NTP] U.S. Food and Drug Administration [FDA] DNA repair pathways play a critical role in cellular homeostasis by repairing DNA damage induced by endogenous processes and xenobiotics. […]
Results filed as inconclusive are left out. Active and inactive are the calls of the source. The call rests on the fitted dose curve; in most records, active means well fitted cell-killing curve with a large enough effect in the repeat runs; inconclusive means weak or mixed curves; inactive means no such curve, though single readings can be large or run the other way.
Respond only with the outcome that fits, drawn from class 1 (active), class 0 (inactive)

| compound | classAssignment |
| --- | --- |
| O=C(NCCN1CCOCC1)c1ccc(Cl)cc1 | class 0 |
| COc1cc(C(=S)N2CCOCC2)cc(OC)c1OC | class 0 |
| CN(C)C(=O)CNC(=O)Cc1ccccc1 | class 0 |
| C=C(C)C(=O)OCCN(CC)CC | class 0 |
| C=Cc1ccccn1 | class 0 |
| O=C(OCC1(COC(=O)c2cccnc2)CCCC(COC(=O)c2cccnc2)(COC(=O)c2cccnc2)C1O)c1cccnc1 | class 0 |
| NCCN1CCOCC1 | class 0 |
| OCCCCC(O)CO (stereo not given) | class 0 |

Task: What is the recorded call for this compound in the test? CC(CN)CC(C)(C)CCN (stereo not given)
Output: class 1

Task: What do you get for CC(=O)NCCCCCC(=O)O ?
Output: class 0

Task: Then CCCCCCOC(=O)CC ?
Output: class 0

* * *

- assayProcedure: qHTS assay to identify small molecule agonists of the constitutive androstane receptor (CAR) signaling pathway - cell viability counter screen (AID 1224836); also: % is scaled to controls: 0 for no effect and ±100 for the full control effect; nearly all actives have a fitted effect of over 45% in size
- conditionParameters: HepG2-CYP2B6-hCAR viability, CellTiter-Fluor, 23 h, PK11195 added to every well; series mostly up to 92.4 µM
Inconclusive results are not listed. Active and inactive are the calls of the source. Calls come from the whole dose curve; as a rule, active = well fitted cell-killing curve with a large enough effect in the repeat runs; inconclusive = weak or mixed curves, or effect the other way; inactive = flat fitted curve, though single readings scatter.
testReadout: viability change, negative = cytotoxic

Worked cases, viability change, negative = cytotoxic given:
| cpdSmiles | viability change, negative = cytotoxic |
| --- | --- |
| CC1=C(C(=O)O)N2C(=O)[C@@H](NC(=O)[C@H](N)c3ccc(O)cc3)[C@H]2SC1 | inactive |
| CCOC(=O)[C@H](CCc1ccccc1)N[C@@H](C)C(=O)N1C(=O)N(C)C[C@H]1C(=O)O | inactive |
| BrCc1cccc(Oc2ccccc2)c1 | inactive |
| CCOCCOC(=O)/C=C/c1ccc(OC)cc1 | inactive |
| C=CCCCCCCCCCCCC | inactive |
| CCO[Si](CCCS)(OCC)OCC | inactive |
| C[Si](C)(C)C | inactive |
| COc1cc(NS(=O)(=O)c2ccc(N)cc2)nc(OC)n1 | inactive |
| CC(=O)NCCCCCC(=O)O | inactive |
| Cc1ccc(S(=O)(=O)O)c(C)c1 | inactive |

Task: viability change, negative = cytotoxic lookup needed for C=C1CC/C=C(\C)CC[C@@H]2[C@@H]1CC2(C)C , thanks.
Output: inactive

* * *

- assayProcedure: A CellTox Green Cytotoxicity Assay to monitor cytotoxicity in HepG2 cells - 40 hour (AID 1224879); also: % is scaled to controls: 0 for no effect and ±100 for the full control effect; nearly all actives have a fitted effect of over 40% in size
- conditionParameters: CellTox Green fluorescence; series mostly up to 76.8 µM
- Text: National Center for Advancing Translational Sciences [NCATS] NIH Chemical Genomics Center [NCGC] U.S. Environmental Protection Agency [EPA] National Institutes of Environmental Health Sciences [NIEHS] National Toxicology Program [NTP] Cell-based models are critical for drug discovery. […] Viable cells produce no appreciable increases in fluorescence. Therefore, the fluorescence signal produced by the binding interaction with dead cell DNA is proportional to cytotoxicity. […]
Records with an inconclusive call do not appear. Calls of active or inactive are those of the source. Calls follow the shape of the dose curve; as a rule, active = well fitted activation curve with a large enough effect in the repeat runs; inconclusive = weak or mixed curves; inactive = flat fitted curve, though single readings scatter.
testReadout: cytotoxicity increase

The cases that follow already have their cytotoxicity increase on record.
| compound | testReadout | endpointResult |
| --- | --- | --- |
| COC(=O)[C@@H]1[C@H]2C[C@H]3c4[nH]c5ccccc5c4CCN3C[C@@H]2CC[C@@H]1O | cytotoxicity increase | inactive |
| CC(C)(C)c1nnc(NS(=O)(=O)c2ccc(N)cc2)s1 | cytotoxicity increase | inactive |
| Nc1ccc([N+](=O)[O-])c(N)c1 | cytotoxicity increase | inactive |
| O=C(O)CCSSCCC(=O)O | cytotoxicity increase | inactive |
| O=C(CCNNC(=O)c1ccncc1)NCc1ccccc1 | cytotoxicity increase | inactive |
| O=S(O)(O)=S | cytotoxicity increase | -1.37% [at 6.97 µM] (inactive) |
| CC(=O)OC(C)OC(=O)C(C)c1ccc(-c2ccccc2)c(F)c1 (configuration not stated) | cytotoxicity increase | inactive |
| CC(C)C[C@H](NC(=O)CNC(=O)[C@H](Cc1ccc(O)cc1)NC(=O)[C@H](CO)NC(=O)[C@H](Cc1c[nH]c2ccccc12)NC(=O)[C@H](Cc1cnc[nH]1)NC(=O)[C@@H]1CCC(=O)N1)C(=O)N[C@@H](CCCN=C(N)N)C(=O)N1CCC[C@H]1C(=O)NCC(N)=O (stereo in doubt) | cytotoxicity increase | inactive |
| CCCCCOC(=O)CCC | cytotoxicity increase | inactive |
| CCOc1cc(NC(C)=O)ccc1C(=O)OC | cytotoxicity increase | inactive |

Parameter requested: cytotoxicity increase. Apply to each item below.
1. CCCN1C[C@H](CSC)C[C@@H]2c3cccc4[nH]cc(c34)C[C@H]21
2. O=C1c2ccccc2C(=O)c2cc(S(=O)(=O)O)ccc21
3. CC(COC(C)(C)C)OCCCO (configuration not stated)

Output:
1. inactive
2. inactive
3. inactive

Count: 2. Required value per item: cytotoxicity increase.
1. Cc1cc(C(C)(C)C)c(O)c(C)c1CC1=NCCN1
2. O=C1CCCC(=O)O1

Output:
1. inactive
2. inactive

Could you report cytotoxicity increase for every entry in the following list?
1. CC(C)C(=O)OCc1cccc(OC(=O)[C@@H]2N3C(=O)[C@@H](NC(=O)Cc4ccccc4)[C@H]3SC2(C)C)c1
2. CC(C)NCC(O)COc1ccc(COCCOC(C)C)cc1 (configuration not stated)
3. NCCS
4. Cc1ccc2c(c1)OCC(=O)CO2
5. CC(N)C(=O)OC(C)(C)Cc1ccc(Cl)cc1 (configuration not stated)
6. CC[C@H](C)C(=O)O[C@H]1C[C@H](O)C=C2C=C[C@H](C)[C@H](CC[C@@H](O)C[C@@H](O)CC(=O)O)[C@H]21
7. O=C(OCC1(COC(=O)c2cccnc2)CCCC(COC(=O)c2cccnc2)(COC(=O)c2cccnc2)C1O)c1cccnc1

Output:
inactive
inactive
inactive
inactive
inactive
inactive
inactive
